# TEST PROTOCOL: Renal cytotoxicity against HK-2 cells incubated for 72 hrs by CCK8 assay
# Format: toxicity, cell-based
# REPORTED CONDITIONS: human
Bridge positions count the residues as written; N and C are the ends. Square brackets hold non-standard residues; d marks the D form. Peptide text beside a SMILES is read from it. * marks the point of attachment. X1 = CC[C@H](C)CCCCC(=O)*; dDab = NCC[C@@H](N)C(=O)O; Dab = NCC[C@H](N)C(=O)O
RECORDED ENDPOINT: IC50 at 72 h (µg/mL)
Unit µg/mL implied. Number only.

Consider the compound CC[C@H](C)CCCCC(=O)N[C@@H](CCN)C(=O)N[C@H](C(=O)N[C@H](CCN)C(=O)N[C@H]1CCNC(=O)[C@H]([C@@H](C)O)NC(=O)[C@H](CCN)NC(=O)[C@H](CCN)NC(=O)[C@H]([C@@H](C)O)NC(=O)[C@@H](Cc2ccccc2)NC(=O)[C@H](CCN)NC1=O)[C@@H](C)O (X1-[Dab]T[dDab][Dab][Dab][dF]T[Dab][Dab]T; lactam 4-C) and give its measured IC50 at 72 h.
371

----------
# TEST PROTOCOL: Renal cytotoxicity against HK-2 cells incubated for 72 hrs by CCK8 assay
# Assay type: toxicity, cell-based
# REPORTED CONDITIONS: human
Bridge positions count the residues as written; N and C are the ends. Square brackets hold non-standard residues; d marks the D form. Peptide text beside a SMILES is read from it. * marks the point of attachment. Heptanoyl(6-Me) = CC(C)CCCCC(=O)*; Orn = NCCC[C@H](N)C(=O)O; Dab = NCC[C@H](N)C(=O)O
RECORDED ENDPOINT: IC50 at 72 h

CC(C)CCCCC(=O)N[C@@H](CCN)C(=O)N[C@H](C(=O)N[C@H](CO)C(=O)N[C@H]1CCNC(=O)[C@H]([C@@H](C)O)NC(=O)[C@H](CCN)NC(=O)[C@H](CCCN)NC(=O)[C@H]([C@@H](C)O)NC(=O)[C@@H](Cc2ccccc2)NC(=O)[C@H](CCN)NC1=O)[C@@H](C)O ({Heptanoyl(6-Me)}-[Dab]T[dS][Dab][Dab][dF]T[Orn][Dab]T; lactam 4-C): > 500 µg/mL

// next item, IC50 at 72 h requested
Consider the molecule CC(C)CCCCC(=O)N[C@@H](CCCN)C(=O)N[C@H](C(=O)N[C@H](CO)C(=O)N[C@H]1CCNC(=O)[C@H]([C@@H](C)O)NC(=O)[C@H](CCN)NC(=O)[C@H](CCN)NC(=O)[C@H]([C@@H](C)O)NC(=O)[C@@H](Cc2ccccc2)NC(=O)[C@H](CCN)NC1=O)[C@@H](C)O ({Heptanoyl(6-Me)}-[Orn]T[dS][Dab][Dab][dF]T[Dab][Dab]T; lactam 4-C) and give its measured IC50 at 72 h.
> 500 µg/mL

----------
Catalogue of MIC values
# Tested on: Acinetobacter baumannii
# TEST PROTOCOL: Antibacterial activity against Acinetobacter baumannii NCTC 13304 (OXA-27) assessed as inhibition of bacterial growth incubated for 16 to 20 hrs by CLSI protocol based broth microdilution method
# Type: functional
# REPORTED CONDITIONS: time 16-20 hrs
Bridge positions count the residues as written; N and C are the ends. Square brackets hold non-standard residues; d marks the D form. Peptide text beside a SMILES is read from it. * marks the point of attachment. Heptanoyl(6-Me) = CC(C)CCCCC(=O)*; Octanoyl = CCCCCCCC(=O)*; Orn = NCCC[C@H](N)C(=O)O; Dab = NCC[C@H](N)C(=O)O; Dap = NC[C@H](N)C(=O)O
Unit µg/mL implied. Number only.

Some entries whose results are on file:
CC(C)CCCCC(=O)N[C@@H](CCN)C(=O)N[C@H](C(=O)N[C@@H](CCCCN)C(=O)N[C@H]1CCNC(=O)[C@H]([C@@H](C)O)NC(=O)[C@H](CCN)NC(=O)[C@H](CCN)NC(=O)[C@H]([C@@H](C)O)NC(=O)[C@@H](Cc2ccccc2)NC(=O)[C@H](CCN)NC1=O)[C@@H](C)O: 1
CC(C)CCCCC(=O)N[C@@H](CCN)C(=O)N[C@H](C(=O)N[C@@H](CO)C(=O)N[C@H]1CCNC(=O)[C@H]([C@@H](C)O)NC(=O)[C@H](CCN)NC(=O)[C@H](CCN)NC(=O)[C@H]([C@@H](C)O)NC(=O)[C@@H](CC(C)C)NC(=O)[C@H](CCN)NC1=O)[C@@H](C)O: 8
CC(C)C[C@@H]1NC(=O)[C@H](CCN)NC(=O)[C@@H](NC(=O)[C@@H](CO)NC(=O)[C@@H](NC(=O)[C@H](CCN)NC(=O)CCCCCCC(=O)O)[C@@H](C)O)CCNC(=O)[C@H]([C@@H](C)O)NC(=O)[C@H](CCN)NC(=O)[C@H](CCN)NC(=O)[C@H]([C@@H](C)O)NC1=O: 0.25
CCCCCCCC(=O)N[C@@H](CCN)C(=O)N[C@H](C(=O)N[C@@H](CCN)C(=O)N[C@H]1CCNC(=O)[C@H]([C@@H](C)O)NC(=O)[C@H](CCN)NC(=O)[C@H](CCN)NC(=O)[C@H]([C@@H](C)O)NC(=O)[C@@H](CC(C)C)NC(=O)[C@H](CCN)NC1=O)[C@@H](C)O (Octanoyl-[Dab]T[Dab][Dab][Dab][dL]T[Dab][Dab]T; lactam 4-C): 1
CC(C)CCCCC(=O)N[C@@H](CCCN)C(=O)N[C@H](C(=O)N[C@H](CO)C(=O)N[C@H]1CCNC(=O)[C@H]([C@@H](C)O)NC(=O)[C@H](CCN)NC(=O)[C@H](CCN)NC(=O)[C@H]([C@@H](C)O)NC(=O)[C@@H](Cc2ccccc2)NC(=O)[C@H](CCN)NC1=O)[C@@H](C)O ({Heptanoyl(6-Me)}-[Orn]T[dS][Dab][Dab][dF]T[Dab][Dab]T; lactam 4-C): 4

Consider the molecule CCCCCCCC(=O)N[C@@H](CCN)C(=O)N[C@H](C(=O)N[C@@H](CCN)C(=O)N[C@H]1CCNC(=O)[C@H]([C@@H](C)O)NC(=O)[C@H](CCN)NC(=O)[C@H](CCN)NC(=O)[C@H]([C@@H](C)O)NC(=O)[C@@H](Cc2ccccc2)NC(=O)[C@H](CCN)NC1=O)[C@@H](C)O (Octanoyl-[Dab]T[Dab][Dab][Dab][dF]T[Dab][Dab]T; lactam 4-C) and give its measured MIC.
0.25

Consider the molecule CC(C)CCCCC(=O)N[C@@H](CCN)C(=O)N[C@H](C(=O)N[C@H](CO)C(=O)N[C@H]1CCNC(=O)[C@H]([C@@H](C)O)NC(=O)[C@H](CCN)NC(=O)[C@H](CCCN)NC(=O)[C@H]([C@@H](C)O)NC(=O)[C@@H](Cc2ccccc2)NC(=O)[C@H](CCN)NC1=O)[C@@H](C)O ({Heptanoyl(6-Me)}-[Dab]T[dS][Dab][Dab][dF]T[Orn][Dab]T; lactam 4-C) and give its measured MIC.
0.125

Consider the molecule CC(C)CCCCC(=O)N[C@@H](CCN)C(=O)N[C@H](C(=O)N[C@H](CO)C(=O)N[C@H]1CCNC(=O)[C@H]([C@@H](C)O)NC(=O)[C@H](CCN)NC(=O)[C@H](CCN)NC(=O)[C@H]([C@@H](C)O)NC(=O)[C@@H](Cc2ccccc2)NC(=O)[C@H](CN)NC1=O)[C@@H](C)O ({Heptanoyl(6-Me)}-[Dab]T[dS][Dab][Dap][dF]T[Dab][Dab]T; lactam 4-C) and give its measured MIC.
0.25
